# Method notes: Metabolic stability in human liver microsomes assessed as half life at 10 uM incubated for 5 mins in the presence of NADPH-generating system by LC-MS/MS analysis
# Format: ADME, Microsome
Respond with rule met for half-life at 10 µM values of 30 min and above, rule not met for values below.

Past entries and their recorded results:
{"columns": ["Test smiles", "Discrete label"],
 "data": [
  ["CN1CCN(c2ccc(C(=O)Nc3cnc4[nH]cc(-c5cncc(F)c5)c4c3)cc2)CC1", "rule met"],
  ["COc1cncc(-c2c[nH]c3ncc(NCc4cccc(F)c4)cc23)c1", "rule not met"],
  ["O=C(Nc1cnc2[nH]cc(-c3cncc(F)c3)c2c1)c1ccc(F)cc1", "rule met"],
  ["COc1cncc(-c2c[nH]c3ncc(NC(=O)c4ccc(F)cc4)cc23)c1", "rule met"],
  ["CN1CCN(c2ccc(CNc3cnc4[nH]cc(-c5cncc(F)c5)c4c3)cc2)CC1", "rule not met"]
]}

Has `COc1cncc(-c2c[nH]c3ncc(NC(=O)c4ccc(Cl)cc4OC)cc23)c1` a recorded half-life at 10 µM greater than or equal to 30 min? rule met

# bool: half-life at 10 µM of `COc1cncc(-c2c[nH]c3ncc(NCc4ccc(N5CCOCC5)cc4)cc23)c1` >= 30 min rule not met

half-life at 10 µM >= 30 min for `COc1cc(Cl)ccc1C(=O)Nc1cnc2[nH]cc(-c3cncc(F)c3)c2c1` ? rule met

Could you verify whether the entry `COc1cncc(-c2c[nH]c3ncc(NCc4ccc(F)cc4)cc23)c1` shows half-life at 10 µM of no less than 30 min? rule not met

Check the entry `COc1cncc(-c2c[nH]c3ncc(NCc4cc(F)cc(F)c4)cc23)c1` : does half-life at 10 µM equal or exceed 30 min? rule met
